Reported MIC by item:
Test system: S. aureus RN450
Experiment: In Vitro Anti-Bacterial Activity Assay (MIC), gram positive
Type: cell-based
Conditions: Staphylococcus aureus, RN450, 18 h, gram positive bacteria; read-out: Antibiotic Activity Gram + (MIC)
measured_attribute: MIC

>>> value_measured("CN(C)CCNC(=O)c1cccc(-c2ccc(O)c3c2C[C@H]2C[C@H]4[C@H](N(C)C)C(O)=C(C(N)=O)C(=O)[C@@]4(O)C(O)=C2C3=O)c1")
"< 4 mg/L"
>>> value_measured("CN(C)c1cc(NCc2cc[nH]n2)c(O)c2c1C[C@H]1C[C@H]3[C@H](N(C)C)C(O)=C(C(N)=O)C(=O)[C@@]3(O)C(O)=C1C2=O")
"> 4 mg/L"
>>> value_measured("CC(C)NCc1cc(N(C)C)c2c(c1O)C(=O)C1=C(O)[C@]3(O)C(=O)C(C(N)=O)=C(O)[C@@H](N(C)C)[C@@H]3C[C@@H]1C2")
"< 4 mg/L"
>>> value_measured("CN(C)c1cc(CO)c(O)c2c1C[C@H]1C[C@H]3[C@H](N(C)C)C(O)=C(C(N)=O)C(=O)[C@@]3(O)C(O)=C1C2=O")
"< 4 mg/L"
>>> value_measured("CN(C)c1cc(CNC2C[C@H]3CC[C@@H]2C3)c(O)c2c1C[C@H]1C[C@H]3[C@H](N(C)C)C(O)=C(C(N)=O)C(=O)[C@@]3(O)C(O)=C1C2=O (stereo partly drawn)")
"< 4 mg/L"
>>> value_measured("CN(C)c1cc(CNCc2cc(F)c(F)c(F)c2)c(O)c2c1C[C@H]1C[C@H]3[C@H](N(C)C)C(O)=C(C(N)=O)C(=O)[C@@]3(O)C(O)=C1C2=O")
"< 4 mg/L"
>>> value_measured("CC(C)COC(=O)NCc1ccc(-c2ccc(O)c3c2C[C@H]2C[C@H]4[C@H](N(C)C)C(O)=C(C(N)=O)C(=O)[C@@]4(O)C(O)=C2C3=O)cc1")
"< 4 mg/L"
>>> value_measured("C[C@H]1c2ccc(CN3CCC(F)(F)CC3)c(O)c2C(=O)C2=C(O)[C@]3(O)C(=O)C(C(N)=O)=C(O)[C@@H](N(C)C)[C@@H]3[C@@H](O)[C@@H]21")
"< 4 mg/L"
>>> value_measured("CN(C)c1cc(CNC(=O)C(C)(C)C)c(O)c2c1C[C@H]1C[C@H]3[C@H](N(C)C)C(O)=C(C(N)=O)C(=O)[C@@]3(O)C(O)=C1C2=O")
"< 4 mg/L"
>>> value_measured("CN(C)c1cc(-c2ccccn2)c2c(c1O)C(=O)C1=C(O)[C@]3(O)C(=O)C(C(N)=O)=C(O)[C@@H](N(C)C)[C@@H]3C[C@@H]1C2")
"< 4 mg/L"
>>> value_measured("CN(C)[C@@H]1C(O)=C(C(N)=O)C(=O)[C@@]2(O)C(O)=C3C(=O)c4c(O)ccc(C(=O)CN5CCOCC5)c4C[C@H]3C[C@@H]12")
"< 4 mg/L"
>>> value_measured("CN(C)[C@@H]1C(OCc2ccccc2)=C(C(N)=O)C(=O)[C@@]2(O)C(O)=C3C(=O)c4c(O)cccc4C[C@H]3C[C@@H]12")
"> 4 mg/L"

----------
System: S. aureus RN450
Assay: In Vitro Anti-Bacterial Activity Assay (MIC), gram positive
Format: cell-based
Conditions: Staphylococcus aureus, RN450, 18 h, gram positive bacteria; read-out: Antibiotic Activity Gram + (MIC)
Reported MIC by item:
measured_attribute: MIC

>>> value_measured("COc1cccc(CNCc2cc(N(C)C)c3c(c2O)C(=O)C2=C(O)[C@]4(O)C(=O)C(C(N)=O)=C(O)[C@@H](N(C)C)[C@@H]4C[C@@H]2C3)c1")
"< 4 µg/mL"
>>> value_measured("CN(C)c1ccc(-c2cc(I)c(O)c3c2C[C@H]2C[C@H]4[C@H](N(C)C)C(O)=C(C(N)=O)C(=O)[C@@]4(O)C(O)=C2C3=O)cc1")
"< 4 µg/mL"
>>> value_measured("CN(C)Cc1cc(N(C)C)c2c(c1O)C(=O)C1=C(O)[C@]3(O)C(=O)C(C(N)=O)=C(O)[C@@H](N(C)C)[C@@H]3C[C@@H]1C2")
"< 4 µg/mL"
>>> value_measured("C/C(=N/OCC(C)C)c1ccc(O)c2c1C[C@H]1C[C@H]3[C@H](N(C)C)C(O)=C(C(N)=O)C(=O)[C@@]3(O)C(O)=C1C2=O")
"< 4 µg/mL"
>>> value_measured("COc1ccc(-c2ccc(O)c3c2C[C@H]2C[C@H]4[C@H](N(C)C)C(O)=C(C(N)=O)C(=O)[C@@]4(O)C(O)=C2C3=O)cc1 [drawing 3425]")
"< 4 µg/mL"
>>> value_measured("CN(C)c1cc(CNCCCC(F)(F)F)c(O)c2c1C[C@H]1C[C@H]3[C@H](N(C)C)C(O)=C(C(N)=O)C(=O)[C@@]3(O)C(O)=C1C2=O")
"< 4 µg/mL"
>>> value_measured("CN(C)[C@@H]1C(O)=C(C(N)=O)C(=O)[C@@]2(O)C(O)=C3C(=O)c4c(O)ccc(-c5ccc(CNC6CC6)o5)c4C[C@H]3C[C@@H]12")
"< 4 µg/mL"
>>> value_measured("CN(C)[C@@H]1C(O)=C(C(N)=O)C(=O)[C@@]2(O)C(O)=C3C(=O)c4c(O)ccc(S(=O)(=O)O)c4C[C@H]3C[C@@H]12")
"> 4 µg/mL"
>>> value_measured("CN(C)c1cc(CNC(N)=O)c(O)c2c1C[C@H]1C[C@H]3[C@H](N(C)C)C(O)=C(C(N)=O)C(=O)[C@@]3(O)C(O)=C1C2=O")
"> 4 µg/mL"
>>> value_measured("CN(C)[C@@H]1C(O)=C(C(N)=O)C(=O)[C@@]2(O)C(O)=C3C(=O)c4c(O)ccc(C(=O)CN5CCCCC5)c4C[C@H]3C[C@@H]12")
"< 4 µg/mL"
>>> value_measured("CN(C)c1cc(CNCc2ccc(F)cc2)c(O)c2c1C[C@H]1C[C@H]3[C@H](N(C)C)C(O)=C(C(N)=O)C(=O)[C@@]3(O)C(O)=C1C2=O")
"< 4 µg/mL"
>>> value_measured("CN(C)[C@@H]1C(O)=C(C(N)=O)C(=O)[C@@]2(O)C(O)=C3C(=O)c4c(O)ccc(CNC(=O)C(C)(C)C)c4C[C@H]3C[C@@H]12")
"< 4 µg/mL"
